Tested on: SR leukemia
EXPERIMENTAL_PROTOCOL: NCI tumour cell line growth inhibition, 48 h
Attribute: TGI
Dear colleague, please return just the value in µM, with no unit written.

Use the examples below as a reference point.
MOLECULE	TGI [µM]
N#Cc1c(N)nc(NCc2ccccc2)c(C#N)c1-c1ccc(Cl)cc1	52.8
O=C1CC[C@@]2(O)[C@H]3Cc4ccc(-c5cccc(O)c5)c5c4[C@@]2(CCN3CC2CC2)[C@H]1O5	66.9
O=C1c2ccccc2C2=Cc3ccccc3C(O)N12 (stereo not given)	83.5

Here is another molecule to look at.
Q: Field request: TGI | item: C=C1C[C@@H](O)[C@@H](Br)C(C)(C)[C@@]12C=CC(O)(CBr)CC2 (stereo not given in full)
Result: 77.6
